# target.desc: T1, anti-CD28 scFv (VH - linker 1 - VL) (biotinylated (site not stated))
# T1 construct: Captured as biotinylated scFv on neutravidin coated plates in the clonal phage ELISA
# run.description: clonal phage ELISA; biotinylated anti-CD28 scFv on neutravidin plate, anti-M13-HRP detection;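 further: crude supernatants of phage clones were tested in wells pretreated with blocking buffer either alone or supplemented with soluble CD28 protein before phage addition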
Classify as follows. Reported CD28 scFv signal greater than or equal to 1: t. Reported CD28 scFv signal below: f.

binder | label
MSWCPRDMWFYCYA (tested as crude clonal phage supernatant) [Phage-203] | t
MDWCPRNMWTVCFL (tested as crude clonal phage supernatant) [Phage-211] | t
MNWCPSYMWDQCFA (tested as crude clonal phage supernatant) [Phage-213] | f
FDFCPTTMWTYCQH (tested as crude clonal phage supernatant) [Phage-220] | f
IDWCPQDMWFYCFN (tested as crude clonal phage supernatant) [Phage-209] | t
MDWCPRAMWHECFY (tested as crude clonal phage supernatant) [Phage-207] | t
MDWCPRHMWYECFF (tested as crude clonal phage supernatant) [Phage-197] | t
TTWCPTSMWLHCFD (tested as crude clonal phage supernatant) [Phage-221] | f
